assay target: human activated kallikrein enzyme (Homo sapiens, UniProt P03952)
Sequence (P03952 391-638 limits assumed): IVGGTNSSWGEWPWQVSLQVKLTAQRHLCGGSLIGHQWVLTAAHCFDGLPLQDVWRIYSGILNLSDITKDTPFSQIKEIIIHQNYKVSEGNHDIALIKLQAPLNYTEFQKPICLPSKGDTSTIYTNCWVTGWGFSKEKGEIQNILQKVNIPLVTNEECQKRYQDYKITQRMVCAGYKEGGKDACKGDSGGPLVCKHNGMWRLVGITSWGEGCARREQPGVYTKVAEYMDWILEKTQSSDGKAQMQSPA
Sequence (P03952 20-390 partner limits assumed): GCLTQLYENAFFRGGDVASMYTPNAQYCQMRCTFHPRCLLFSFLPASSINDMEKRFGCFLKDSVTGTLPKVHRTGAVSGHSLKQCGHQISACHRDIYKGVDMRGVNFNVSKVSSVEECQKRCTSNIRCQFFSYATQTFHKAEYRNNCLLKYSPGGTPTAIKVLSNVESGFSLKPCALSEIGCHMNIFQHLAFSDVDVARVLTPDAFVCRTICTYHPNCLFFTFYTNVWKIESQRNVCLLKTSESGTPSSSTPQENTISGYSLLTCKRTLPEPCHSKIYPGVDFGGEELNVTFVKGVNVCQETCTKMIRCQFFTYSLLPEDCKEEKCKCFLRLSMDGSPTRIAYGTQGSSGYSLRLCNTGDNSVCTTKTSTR
measurement notes: Inhibition of activated plasma kallikrein, fluorogenic peptide substrate (PFR-AMC) assay, 500 pM enzyme format
condition info: 500 pM activated kallikrein, 300 uM PFR-AMC, 30 min preincubation, 10 min reaction, room temperature; read-out: Primary Dose Response Assay: Average EC50
readout label: EC50

EC50 for CN1C(=O)CN(c2cc(C3CC3)cn3cc(CNc4ccc5ccc([C@H]6C[C@@H]6c6cc(Cl)ccc6C#N)nc5c4)nc23)C1=O (racemic) is 1 to 10 nM

----------
assay target: plasma kallikrein (Homo sapiens)
Construct: from tissue; host or cells: sodium citrate collected human plasma (78% final)
measurement notes: Neat human plasma assay: contact pathway-activated (FXIIa) plasma, PFR-AMC substrate
Format: biochemical
condition info: citrated human plasma (78% final), 10 nM human FXIIa, 100 μM PFR-AMC, room temperature
readout label: IC90

Some compounds with recorded IC90:
Cc1ccnc([C@H]2C[C@@H]2c2ccc3ccc(N4C[C@@H](O)C[C@@H]4c4cn5cc(C6CC6)cc(N6CC(=O)N(C)C6=O)c5n4)cc3n2)n1 (relative stereo); 1500 to 10000 nM
Cc1ccnc([C@H]2C[C@@H]2c2cc(N3CC4(COC4)C3)c3ccc(NC(C)c4cn5cc(C6CC6)cc(N6CC(=O)N(C)C6=O)c5n4)cc3n2)n1 (stereo partly drawn); 400 to 1500 nM
Cc1ccnc([C@H]2C[C@@H]2c2cc(N(C)C)c3ccc(NCc4cn5cc(C6CC6)ccc5n4)cc3n2)n1 (racemic); 400 to 1500 nM
Cc1ccnc([C@H]2C[C@@H]2C2=NS(=O)(=O)c3ccc(NCc4cn5cc(C6CC6)ccc5n4)cc3N2)n1 (racemic) [Example 64]; 400 to 1500 nM
Cc1ccnc([C@H]2C[C@@H]2c2nc3cc(NCc4cn5cc(C6CC6)cc(N6CC(=O)N(C)C6=O)c5n4)cnc3c(=O)[nH]2)n1 (racemic); 1500 to 10000 nM

Consider the record given below.
The compound listed as Cc1ccnc([C@H]2C[C@@H]2c2ccc3ccc(NCc4cn5cc(C6CC6)cc(N6CC(=O)N(C)C6=O)c5n4)cc3n2)n1 (racemic) [Example 57] shows IC90 equal to 1500 to 10000 nM

----------
assay target: plasma kallikrein (Homo sapiens)
Construct: from tissue; host or cells: sodium citrate collected human plasma (78% final)
measurement notes: Neat human plasma assay: contact pathway-activated (FXIIa) plasma, PFR-AMC substrate
Type: biochemical
condition info: citrated human plasma (78% final), 10 nM human FXIIa, 100 μM PFR-AMC, room temperature
readout label: IC90

As a guide, the following entries are already answered.
CN1C(=O)CN(c2cc(C3CC3)cn3cc(CNc4ccc5c(=O)cc([C@H]6C[C@@H]6c6cccc(Cl)c6)[nH]c5c4)nc23)C1=O (racemic); 1500 to 10000 nM
Cc1ccnc([C@H]2C[C@@H]2c2cc(N3CC4(COC4)C3)c3ccc(NCc4cc5cc(C6CC6)cc(N6CC(=O)N(C)C6=O)n5n4)cc3n2)n1; ≤ 400 nM

The record that follows has no IC90 shown yet.
Here Cc1ccnc([C@H]2C[C@@H]2c2ccc3ccc(NCc4cn5cc(C6CC6)cc(N6CC(=O)N(C)C6=O)c5n4)cc3n2)n1 (single isomer, unassigned) [Example 59] was tested on plasma kallikrein (Homo sapiens), and its IC90 came to 1500 to 10000 nM

----------
assay target: human activated kallikrein enzyme (Homo sapiens, UniProt P03952)
measurement notes: Inhibition of activated plasma kallikrein, fluorogenic peptide substrate (PFR-AMC) assay, 500 pM enzyme format
condition info: 500 pM activated kallikrein, 300 uM PFR-AMC, 30 min preincubation, 10 min reaction, room temperature; read-out: Primary Dose Response Assay: Average EC50
Each entry below lists one item and its recorded EC50 value.

Notebook: Cc1ccnc([C@H]2C[C@@H]2c2cc(N(C)S(C)(=O)=O)c3ccc(NCc4cn5cc(C6CC6)cc(N6CC(=O)N(C)C6=O)c5n4)cc3n2)n1 (racemic) [Example 34] , EC50 read as 1 to 10 nM

The reported value for Cc1ccnc([C@H]2C[C@@H]2c2cc(N3CC4(COC4)C3)c3ccc(OCc4cc5cc(C6CC6)cc(N6CC(=O)N(C)C6=O)n5n4)cc3n2)n1 [Example 108] in terms of EC50 is ≤ 1 nM

Value of measured EC50 for the entry CN1C(=O)CN(c2cc(C3CC3)cn3cc(CNc4ccc5c(=O)[nH]c([C@H]6C[C@@H]6c6cccc(Cl)c6)nc5c4)nc23)C1=O [Example 6] : 1 to 10 nM

----------
Recorded measurements of IC90, one per entry
assay target: plasma kallikrein (Homo sapiens, UniProt P03952)
Construct: from tissue; host or cells: sodium citrate collected human plasma (78% final)
Sequence (P03952 391-638 limits assumed): as the sequence (P03952 391-638 limits assumed) above
Sequence (P03952 20-390 partner limits assumed): as the sequence (P03952 20-390 partner limits assumed) above
measurement notes: Neat human plasma assay: contact pathway-activated (FXIIa) plasma, PFR-AMC substrate
Assay type: biochemical
condition info: citrated human plasma (78% final), 10 nM human FXIIa, 100 μM PFR-AMC, room temperature
Experimental: To analyze inhibition of plasma kallikrein in an ex vivo setting, the potency of compounds was measure in contact pathway-activated plasma assays. In a fluorogenic peptide substrate assay, test compounds dissolved in DMSO were added to sodium citrate collected human or rat plasma in a 96-well microplate. […] Fluorescence was immediately monitored by excitation/emission wavelengths of 360 nm/480 nm respectively over a period of 5 minutes in a microplate reader. […]

Reference set, count: 3
Cc1ccnc(C2CC2c2cc(=O)c3ccc(NCc4cn5cc(C6CC6)cc(N6CC(=O)N(C)C6=O)c5n4)cc3[nH]2)n1 (single isomer, unassigned) [Example 13]; ≤ 0.4 µM
Cc1cc(N2CC(=O)N(C)C2=O)c2nc(COc3ccc4c(N5CC6(COC6)C5)cc([C@H]5C[C@@H]5c5nccc(C)n5)nc4c3)cn2c1; ≤ 0.4 µM
Cc1ccnc([C@H]2C[C@@H]2C2=NS(=O)(=O)c3ccc(OCc4cn5cc(C6CC6)ccc5n4)cc3N2)n1 [Example 91]; 1.5 to 10 µM

Record Cc1ccnc([C@H]2C[C@@H]2C2=NS(=O)(=O)c3ccc(NCc4cn5cc(C6CC6)ccc5n4)cc3N2)n1 (single isomer, unassigned) [Example 65] . Reported IC90: 0.4 to 1.5 µM

Reported IC90 of Cc1ccnc([C@H]2C[C@@H]2c2cc(N(C)C)c3ccc(NCc4cn5cc(C6CC6)cc(N6CC(=O)N(C)C6=O)c5n4)cc3n2)n1 (racemic) : ≤ 0.4 µM

Looking up Cc1ccnc([C@H]2C[C@@H]2c2ccc3ncc(NCc4cn5cc(C6CC6)cc(N6CC(=O)N(C)C6=O)c5n4)cc3n2)n1 (racemic) , I found its IC90 recorded as 1.5 to 10 µM

// recorded IC90 for Cc1ccnc([C@H]2C[C@@H]2c2cc(O)c3ccc(N4C[C@@H](O)C[C@@H]4c4cn5cc(C6CC6)ccc5n4)cc3n2)n1 (relative stereo) : 1.5 to 10 µM

Looking up Cc1ccnc([C@H]2C[C@@H]2c2nc(=O)c3ccc(NCc4cn5cc(C6CC6)cc(N6CC(=O)N(C)C6=O)c5n4)cc3[nH]2)n1 (racemic) , I see its IC90 listed as 1.5 to 10 µM

Lab note: Cc1ccnc([C@H]2C[C@@H]2c2cc(-n3cncn3)c3ccc(NCc4cn5cc(C6CC6)cc(N6CC(=O)N(C)C6=O)c5n4)cc3n2)n1 (racemic) gave IC90 of 1.5 to 10 µM

# IC90 of Cc1ccnc([C@H]2C[C@@H]2c2nc3cc(NCc4cn5cc(C6CC6)cc(N6CC(=O)N(C)C6=O)c5n4)ncc3c(=O)[nH]2)n1 (racemic) = 0.4 to 1.5 µM

IC90 in this record for Cc1ccnc([C@H]2C[C@@H]2c2cc(N3CC4(COC4)C3)c3ccc(NCc4cn5cc(C6CC6)cc(N6CC(=O)N(C)C6=O)c5n4)cc3n2)n1 : ≤ 0.4 µM

----------
# IC90 annotations
assay target: plasma kallikrein (Homo sapiens, UniProt P03952)
Construct: from tissue; host or cells: sodium citrate collected human plasma (78% final)
measurement notes: Neat human plasma assay: contact pathway-activated (FXIIa) plasma, PFR-AMC substrate
Type: biochemical
condition info: citrated human plasma (78% final), 10 nM human FXIIa, 100 μM PFR-AMC, room temperature
Where a name gives a salt, the structure may show the parent alone.

Guide cases for IC90, answers given:
Cc1ccnc([C@H]2C[C@@H]2c2cc(N3CC4(COC4)C3)c3ccc(N[C@H](C)c4cn5cc(C6CC6)cc(N6CC(=O)N(C)C6=O)c5n4)cc3n2)n1; ≤ 400 nM
Cc1ccnc([C@H]2C[C@@H]2c2cc(N(C)S(C)(=O)=O)c3ccc(NCc4cn5cc(C6CC6)cc(N6CC(=O)N(C)C6=O)c5n4)cc3n2)n1 (racemic); 1500 to 10000 nM
Cc1ccnc([C@H]2C[C@@H]2c2cc(N3CCC3)c3ccc(NCc4cn5cc(C6CC6)cc(N6CC(=O)N(C)C6=O)c5n4)cc3n2)n1; ≤ 400 nM
Cc1ccnc([C@H]2C[C@@H]2c2cc(OC3CCN(C)CC3)c3ccc(NCc4cn5cc(C6CC6)cc(N6CC(=O)N(C)C6=O)c5n4)cc3n2)n1 (racemic); ≤ 400 nM
Cc1ccnc([C@H]2C[C@@H]2c2cc(N3CCN(C)CC3)c3ccc(NCc4cn5cc(C6CC6)cc(N6CC(=O)N(C)C6=O)c5n4)cc3n2)n1; ≤ 400 nM
Cc1ccnc([C@H]2C[C@@H]2c2ccc3c(N(C)C)cc(NCc4cn5cc(C6CC6)cc(N6CC(=O)N(C)C6=O)c5n4)cc3n2)n1 (racemic); 400 to 1500 nM
COc1cc(NCc2cn3cc(C4CC4)cc(N4CC(=O)N(C)C4=O)c3n2)cc2nc([C@H]3C[C@@H]3c3nccc(C)n3)ccc12; 400 to 1500 nM
COCc1cc(NCc2cn3cc(C4CC4)cc(N4CC(=O)N(C)C4=O)c3n2)cc2nc([C@H]3C[C@@H]3c3nccc(C)n3)ccc12 (racemic); 400 to 1500 nM
Cc1ccnc([C@H]2C[C@@H]2c2ccc3ccc(NCc4cn5cc(C6CC6)cc(N6CC(=O)NC6=O)c5n4)cc3n2)n1 (racemic); 1500 to 10000 nM
Cc1ccnc([C@H]2C[C@@H]2c2cc(N3CCOCC3)c3ccc(NCc4cn5cc(C6CC6)cc(N6CC(=O)N(C)C6=O)c5n4)cc3n2)n1 (racemic); ≤ 400 nM

Lookup result for Cc1ccnc([C@H]2C[C@@H]2c2cc(-c3cnn(C)c3)c3ccc(NCc4cn5cc(C6CC6)cc(N6CC(=O)N(C)C6=O)c5n4)cc3n2)n1 ; measured IC90: 400 to 1500 nM

For this molecule ( COc1cc([C@H]2C[C@@H]2c2nccc(C)n2)nc2cc(NCc3cn4cc(C5CC5)ccc4n3)ccc12 (racemic) ), measured IC90 is 10000 to 22000 nM

The molecule listed as Cc1ccnc([C@H]2C[C@@H]2c2ccc3cnc(NCc4cn5cc(C6CC6)cc(N6CC(=O)N(C)C6=O)c5n4)cc3n2)n1 (racemic) [Example 15, formic acid salt] has a reported IC90 of 1500 to 10000 nM

Per the record, Cc1ccnc([C@H]2C[C@@H]2c2cc(NCC(C)(C)O)c3ccc(NCc4cn5cc(C6CC6)cc(N6CC(=O)N(C)C6=O)c5n4)cc3n2)n1 has IC90 of ≤ 400 nM

get_value(item= CNc1cc([C@H]2C[C@@H]2c2nccc(C)n2)nc2cc(NCc3cn4cc(C5CC5)cc(N5CC(=O)N(C)C5=O)c4n3)ccc12 (racemic) , readout=IC90) returns ≤ 400 nM

Please fill in: IC90 reported for Cc1ccnc([C@H]2C[C@@H]2c2ccc3ccc(NCc4cn5cc(C6CC6)nc(N6CC(=O)N(C)C6=O)c5n4)cc3n2)n1 (racemic) = 1500 to 10000 nM
